assay: InCell qHTS Assay for Inhibitors of the mTORC1 Signaling Pathway in MEF (Tsc2-/-, p53-/-) Cells: Hit Validation; settings: phospho-rpS6 immunofluorescence, 24 h; at 38.3 µM (top of the series);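 note: phospho-S6 Ser235/236 signal normalized to propidium iodide cell count per well; nearly all actives have a fitted effect of over 75% in size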
Inconclusive results are not listed.

| Molecule | Units Label | activity change, negative = inhibition |
| --- | --- | --- |
| Cc1ccc2nc(/C(C#N)=C/c3ccc(-c4ccc(F)cc4F)o3)[nH]c2c1 | % | -100 |
| Brc1ccc(Nc2c3c(nc4nncn24)CCC3)cc1 | % | -100 |
| COC(=O)c1c(C)oc2ccc(N(C(=O)c3ccncc3)S(=O)(=O)c3ccc(OC)cc3)cc12 | % | -25.4 |
| CCN(CC)c1ccc(NC(=O)CCS(=O)(=O)c2cccc3nsnc23)c(C)c1 | % | -100 |
| CCC(C)Sc1oc(-c2ccco2)nc1S(=O)(=O)c1ccc(C)cc1 (stereo unspecified) | % | -100 |
| CCOC(=O)N1CCN(Cc2nc3cc(NC(=O)CC(C)C)ccc3n2C(C)C)CC1 | % | -100 |
| CCOc1cc(CNc2ccc(O)cc2)cc(Cl)c1OCc1ccccc1 | % | -100 |
| CCCOC(=O)c1c(C)oc2c1cc(NS(=O)(=O)c1ccc(OCC)cc1)c1ccccc12 | % | -15.2 |
| COc1ccc(S(=O)(=O)N(Cc2nc(-c3cccc(C)c3)no2)C2CCCCC2)cc1 | % | -100 |
| Cc1cccc(Oc2coc3cc(OCC(=O)NC4CCCCC4)ccc3c2=O)c1 | % | -100 |
| COc1cc(Cl)c(C)cc1NC(=O)C1CCN(c2nc3ccccc3n3cccc23)CC1 | % | -100 |
| CCOC(=O)c1sc2ccccc2c1S(=O)(=O)Nc1ccc(CC)cc1 | % | -100 |
| COc1ccc(CCNC(=O)CCCn2nc(C)c3sc4ccccc4c3c2=O)cc1OC | % | -100 |
| CN(C)c1ccc(NC(=O)Cn2cc(S(=O)(=O)Cc3ccccc3Cl)c3ccccc32)cc1 | % | -29.2 |
| Cc1ccc(NC(=O)COc2ccc(-c3nn(C)c(=O)c4ccccc34)cc2)c(C)c1 | % | -100 |
| COc1cc(C(=O)NC(c2ccccc2Cl)c2cc(Cl)c3cccnc3c2O)cc(OC)c1OC (stereo unspecified) | % | -100 |
| CCOC(=O)c1c(NC(=O)c2ccc(S(=O)(=O)N(C)C)cc2)sc2c1CCN(C)C2 | % | -26.7 |
| CCN1C(=O)c2ccccc2Sc2ccc(NC(=O)Cc3ccc(OC)cc3)cc21 | % | -100 |
| Oc1ccc(NCc2ccccc2OCc2ccc(Cl)cc2)cc1 | % | -100 |
| COc1ccc(-c2[nH]nc3nc(-c4cc(OC)c(OC)c(OC)c4)cc(C(=O)O)c23)cc1 | % | -100 |
| CCCCOCc1cc(CN2CCN(c3cccc(Cl)c3)CC2)c(O)c2ncccc12 | % | -100 |

###

assay: InCell qHTS Assay for Inhibitors of the mTORC1 Signaling Pathway in MEF (Tsc2-/-, p53-/-) Cells: Hit Validation; conditions: phospho-rpS6 immunofluorescence, 24 h;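 note: phospho-S6 Ser235/236 signal normalized to propidium iodide cell count per well; nearly all actives have a fitted effect of over 75% in size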; note: potency is the fitted concentration of half-maximal effect
Inconclusive results are not listed. The source made the active and inactive calls. Calls come from the whole dose curve; as a rule, active = well fitted inhibition curve with a large enough effect; inconclusive = small, poorly fitted or top-dose-only effect; inactive = no such curve, though single readings can be large or run the other way.
Potency values by entry

| Compound | Potency |
| --- | --- |
| CCCS(=O)(=O)c1ncc(Cl)c(C(=O)N2CCN(c3ccc(OC)cc3)CC2)n1 | 1.85 µM (active) |
| CCS(=O)(=O)c1ncc(Cl)c(C(=O)NCc2ccccc2)n1 | 10.4 µM (active) |
| C=CCc1c(C)nc2nc(SCC(=O)Nc3ccc(C)c(C)c3)nn2c1C | 9.27 µM (active) |
| CCN1CCOC(=O)C1CC(=O)Nc1cc(C)ccc1OC (stereo not given) | 13.1 µM (active) |
| CCc1ccc(NC(=O)C2CCCN(S(=O)(=O)c3c(C)noc3/C=C/N(C)C)C2)cc1 (stereo not given) | 14.7 µM (active) |

###

activity change, negative = inhibition values by entry
test: InCell qHTS Assay for Inhibitors of the mTORC1 Signaling Pathway in MEF (Tsc2-/-, p53-/-) Cells: Hit Validation; settings: phospho-rpS6 immunofluorescence, 24 h; at 38.3 µM (top of the series);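 note: phospho-S6 Ser235/236 signal normalized to propidium iodide cell count per well; nearly all actives have a fitted effect of over 75% in size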
Inconclusive results are not listed.

| Compound | activity change, negative = inhibition (%) |
| --- | --- |
| CCOc1ccc(Nc2nc(-c3cccc(Cl)c3)c3c(n2)-c2ccccc2OC3)cc1 | -100 |
| COc1ccc(C(F)(F)F)cc1NC(=O)c1sc2nc(-c3cccs3)ccc2c1N | -11 |
| COC(=O)c1ccc(Nc2nnc(-c3ccc(C)c(S(=O)(=O)N4CCN(C)CC4)c3)c3ccccc23)cc1 | -100 |
| CCOc1c(Br)cc(C2CC(=O)Nc3cc4c(cc32)OCO4)cc1OC (stereo not drawn) | -100 |
| Cc1cccc(NS(=O)(=O)c2ccc3[nH]c4c(c3c2)CCCCCC4)c1 | -100 |
| Cc1c(Cl)ccc2sc(NC(=O)c3ccc(S(=O)(=O)N4CCCc5ccccc54)cc3)nc12 | -3.12 |
| Cc1ccc(S(=O)(=O)Nc2ccc3c(c2)c(C(=O)OC(C)C)c(C)n3S(=O)(=O)c2ccc(C)cc2)cc1 | -100 |
| C#CC(C)(CC)NC(=O)Cn1nnc(-c2ccc(OCc3c(F)cccc3Cl)cc2)n1 (stereo not drawn) | -100 |
| O=C(Nc1ccc(-c2cc(C(F)(F)F)nn2-c2ccccc2)cc1)c1cccc(F)c1 | -100 |
| COc1ccc(C)cc1NC(=O)CCNS(=O)(=O)c1cccc2nonc12 | -100 |
| CN(C(=O)CSc1nc2ccc(NC(=O)COc3ccc(F)cc3)cc2s1)c1ccccc1 | -100 |
| COCCCNC(=O)c1ccc(CSc2nc3cccnc3n2Cc2ccc(OC)cc2)cc1 | -100 |
| COc1cc(Nc2nc(SCC(=O)c3ccc(Cl)c(Cl)c3)nc3ccccc23)cc(OC)c1 | -16.4 |
